# System: NCI-H460
# experiment: Cancer cell growth inhibition, NCI-H460
# Type: cell-based, human
# experimental.parameters: Homo sapiens; NCI-H460, Lung Cancer, 72 h treatment
Mark 1 (yes) only when IC50 stays strictly below 6 µM. Values equal to the cut-off are 0 (no).

[
  {
    "given.smiles": "O=C(NO)c1ccc(CNC(=O)c2[nH]c(-c3ccc(O)cc3)cc2-c2ccsc2)cc1",
    "label": "0 (no)"
  }
]

Kindly review the next molecule as well.
Inquiry: Please check: IC50 for O=C(NO)c1ccc(CNC(=O)c2[nH]c(-c3ccc(O)cc3)cc2-c2ccoc2)cc1 , strictly under 6 µM or not?
Reply text: 0 (no)
